Please go through the items and note down their MIC.
Test system: M. tuberculosis H37Rv
Assay: Minimum inhibitory concentration (MIC) in the MABA
Type: cell-based, Mycobacterium tuberculosis
Conditions: Mycobacterium tuberculosis, H37RV, Table 5; Alamar assay, M. tuberculosis H37Rv; read-out: MIC
Expressed in µg/mL, but write only the number.

Query string: Please give measured MIC of the following entry: CNC(=O)CCC(C)[C@H]1CCC2C3C(C[C@H](OC(C)=O)[C@@]21C)[C@@]1(C)CCC2(C[C@H]1C[C@H]3OC(C)=O)OOC1(CCC(C)CC1)OO2 (some centres unmarked)
Result string: 6.25

Query string: Using the record for CC(=O)O[C@H]1CC2C(C3CC[C@H](C(C)CCC(N)=O)[C@]31C)[C@H](OC(C)=O)C[C@@H]1CC3(CC[C@]21C)OOC1(CCCCC1)OO3 (some centres unmarked) , state its measured MIC.
Result string: 6.25

Query string: Query MIC for CC(=O)O[C@H]1CC2C(C3CC[C@H](C(C)CCC(N)=O)[C@]31C)[C@H](OC(C)=O)C[C@@H]1CC3(CC[C@]21C)OOC1(CCCCC1C)OO3 (some centres unmarked)
Result string: 0.2

Query string: Assign MIC to the following record: CNC(=O)CCC(C)[C@H]1CCC2C3C(C[C@H](OC(C)=O)[C@@]21C)[C@@]1(C)CCC2(C[C@H]1C[C@H]3OC(C)=O)OOC1(CCCCC1C)OO2 (some centres unmarked)
Result string: 3.13

Query string: Give MIC for the following compound: CC(=O)O[C@H]1CC2C(C3CC[C@H](C(C)CCC(=O)O)[C@]31C)[C@H](OC(C)=O)C[C@@H]1CC3(CC[C@]21C)OOC1(CCC(c2ccccc2)CC1)OO3 (single isomer, unassigned)
Result string: 6.25

Query string: Input CCNC(=O)CCC(C)[C@H]1CCC2C3C(C[C@H](OC(C)=O)[C@@]21C)[C@@]1(C)CCC2(C[C@H]1C[C@H]3OC(C)=O)OOC1(CCC(C)CC1)OO2 (some centres unmarked) , output reported MIC.
Result string: 3.13

Query string: Output measured MIC for this item: CCNC(=O)CCC(C)[C@H]1CCC2C3C(C[C@H](OC(C)=O)[C@@]21C)[C@@]1(C)CCC2(C[C@H]1C[C@H]3OC(C)=O)OOC1(CCCCC1C)OO2 (some centres unmarked)
Result string: 3.13

Query string: Tell me its MIC given CCCNC(=O)CCC(C)[C@H]1CCC2C3C(C[C@H](OC(C)=O)[C@@]21C)[C@@]1(C)CCC2(C[C@H]1C[C@H]3OC(C)=O)OOC1(CCC(CC)CC1)OO2 (single isomer, unassigned) as the entry.
Result string: 6.25

Query string: Determine its reported MIC: CCC1CCC2(CC1)OOC1(CC[C@]3(C)C4C[C@H](OC(C)=O)[C@@]5(C)C(CC[C@@H]5C(C)CCC(N)=O)C4[C@H](OC(C)=O)C[C@@H]3C1)OO2 (single isomer, unassigned)
Result string: 3.13

Query string: Output measured MIC for this item: CC(=O)O[C@H]1CC2C(C3CC[C@H](C(C)CCC(N)=O)[C@]31C)[C@H](OC(C)=O)C[C@@H]1CC3(CC[C@]21C)OOC1(CCC(C)CC1)OO3 (some centres unmarked)
Result string: 3.13

Query string: Identify measured MIC associated with CCCNC(=O)CCC(C)[C@H]1CCC2C3C(C[C@H](OC(C)=O)[C@@]21C)[C@@]1(C)CCC2(C[C@H]1C[C@H]3OC(C)=O)OOC1(CCC(C)CC1)OO2 (some centres unmarked)
Result string: 6.25
